B1: CPEB3 Ribozyme (parent)
chain: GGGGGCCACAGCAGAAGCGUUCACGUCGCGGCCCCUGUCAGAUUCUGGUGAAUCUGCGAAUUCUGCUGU

variants of: B1; assay: self-cleavage, relative activity (ratio to wild type); higher = more cleavage; co-transcriptional
Parameter: self-cleavage. Scope: all listed entries.
# respond with the number and nothing more

Example cases with answers are listed next.
Reported self-cleavage for GGGGGCCACAGCAGAAGCGUUCACGUCGCGGCCCCUGUCAGAUUCUGGAGAAUCUGGGAAUUCUGCUGU [U49A C57G] : what is it?
0.346

Dear colleague, I am looking for the recorded self-cleavage of the following variant: GGGGGCCACAACAGAAGCGUUCACGUCGCGGCCCCUGUCAGAUUCUGGUCAAUCUGCGAAUUCUGCUGU [G11A G50C]
0.715

Name the recorded self-cleavage for GGGGGCCACAGCAGAAGCGUUCAGGUCGCGGCCCCUGUCAGAUUCUGGUGAAUCUGCGAUUUCUGCUGU [C24G A60U] .
0.226

Others:
Quick one: self-cleavage for GGGGACCACAGCAGAAGCGUUCACGUCGCGGCCCCUGUCAGAUUCUGGUGAAUCUGCGAAUUCUGAUGU [G5A C66A] ?
0.727

Entry GGGGGCCACAGCAGAAGCGUUCACGUCGCGGCCCCUGUCAGAUUCUGGUGAAUCUGCGAAGUCUGCUGU [U61G] : reported self-cleavage = ?
0.935

For GGGGGCCACAGCAGAACCGUUCACGUCGCGGCCCCUGUCAGAUUCGGGUGAAUCUGCGAAUUCUGCUGU [G17C U46G] , what is its reported self-cleavage?
0.101

Recorded self-cleavage of GGGGUCCACAGCAGAAGCGUUCACGUCGCGGCCCCUGUCAGAUUCUGGUGAAUCUGCGAAUUCAGCUGU [G5U U64A] , please.
0.109

Request the reported self-cleavage associated with GGGGGCCACAGCAGAAGCGUUCACGUCGCGGCCCCUGUCAGAUUUUGGUGAAUCUGCGAAUACUGCUGU [C45U U62A]
0.908

Can you look up the measured self-cleavage of GGGGGCCACAUCAGAAGUGUUCACGUCGCGGCCCCUGUCAGAUUCUGGUGAAUCUGCGAAUUCUGCUGU [G11U C18U] for me?
0.372

Which self-cleavage value belongs to GGGGGCCACAGCAGAAGCGUUCACGUCGCGGCCCCUGUCGGAUUCUGGUGAAUCUGCGAAUUCUGCGGU [A40G U67G] ?
0.965

I have this variant here, GGGGGCCACAGCAGAAGCGUUCACGUCGCGGCCCCUGUCGGAUUCUGGUGAAUCUGCGAAUUCAGCUGU [A40G U64A] , and I need its recorded self-cleavage.
0.759

Which self-cleavage is listed for GAGGGCCACAGCAGAAGCGUUCACGUCGCGGCCCCUGUCAGAUUCUGGGGAAUCUGCGAAUUCUGCUGU [G2A U49G] ?
0.149

Entry under review: GGGGGCCACAGCAGAAGCGUUCACGUCGCGGCCCCUGUUAGAUUCUGGUGAAUAUGCGAAUUCUGCUGU [C39U C54A] . Reported self-cleavage?
0.526

// self-cleavage lookup, key: GGGGGCCCCAGCAGAAGCGUUCACGUCGCGGCCCCUGUCAGAUUCUGGUGAAUUUGCGAAUUCUGCUGU [A8C C54U]
1

Quick one: self-cleavage of GGGGGCCACAGCAGAAUCUUUCACGUCGCGGCCCCUGUCAGAUUCUGGUGAAUCUGCGAAUUCUGCUGU [G17U G19U] ?
0.123

What value of self-cleavage has been reported for the following variant? GGGGGCCACAGCAGAAUCGUUCACGUCGCGGCCCCUGUCAGAUUCUGGUGAAGCUGCGAAUUCUGCUGU [G17U U53G]
0.336

self-cleavage lookup needed for GGGGGCCACAGCAGGAGCGUUCACGUCGCGGCCCUUGUCAGAUUCUGGUGAAUCUGCGAAUUCUGCUGU [A15G C35U] , thanks.
0.96

Name the reported self-cleavage value associated with the variant GGGGGCCACAGCAGAAGCCUUCACGUGGCGGCCCCUGUCAGAUUCUGGUGAAUCUGCGAAUUCUGCUGU [G19C C27G]
0.961

So what's the measured self-cleavage for this one? GCGUGCCACAGCAGAAGCGUUCACGUCGCGGCCCCUGUCAGAUUCUGGUGAAUCUGCGAAUUCUGCUGU [G2C G4U]
0.0417

Looking for the measured self-cleavage of GGGGGCCACAGCAGAAGCGUUCACGUCGCGGCCCGUGUCAGAUUCUGGUGAAUCUGCGAAUUCUGCAGU [C35G U67A] , can you help?
0.638

// returns reported self-cleavage for input GGGGGCUACAGCAGUAGCGUUCACGUCGCGGCCCCUGUCAGAUUCUGGUGAAUCUGCGAAUUCUGCUGU [C7U A15U]
0.534

So what's the measured self-cleavage for this one? GGGGGCCACAGCAGAAGGGUUCACGUCGCGGCCACUGUCAGAUUCUGGUGAAUCUGCGAAUUCUGCUGU [C18G C34A]
0.131

Fill in the blank: the reported self-cleavage of GGGGGCCACAGCAGAAGCGUUCACGUCGCGGCCCCUGUCAGCUUCUGGUGAAUCAGCGAAUUCUGCUGU [A42C U55A] is ____.
0.595
